# Tested on: Wolbachia pipientis
# procedure details: Anti-Wolbachia Cell-Based Screen
# Assay type: functional
# Parameters: scale not given: in the data most compounds retested in dose-response had high values
# measurement parameters: 5 µM
Among all 48,000 compounds or so, about 13,000 (27%) showed an effect of 50% or more. The list shows a part of the results.
Each entry below carries its reported Percent Effect.
measurement type: Percent Effect

{"compound": "COc1ccc(C)cc1CSCCn1nc2ccccn2c1=O", "measurement type": "Percent Effect", "value measured": "4.389%"}
{"compound": "CCc1ncc(C(=O)N(C)CC2Cc3ccccc3O2)cn1 (centres undefined)", "measurement type": "Percent Effect", "value measured": "-1.94%"}
{"compound": "CCOc1cc2c(cc1C(=O)O)CCC2", "measurement type": "Percent Effect", "value measured": "-16.22%"}
{"compound": "NC(=O)CCSCc1ccc(Br)c(F)c1", "measurement type": "Percent Effect", "value measured": "-4.384%"}

---

Each entry below carries its reported Percent Effect.
# System: Wolbachia pipientis
# procedure details: Anti-Wolbachia Cell-Based Screen
# Assay type: functional
# Set-up: scale not given: in the data most compounds retested in dose-response had high values
# measurement parameters: 5 µM
Screen size: about 48,000 compounds; about 13,000 (27%) showed an effect of 50% or more. The list shows a part of the results.

{"molecule": "Cc1noc(C)c1C(=O)N1CCC2(CC(N(C)c3ccncn3)C2)C1 (centres undefined)", "Percent Effect": "121.5%"}
{"molecule": "O=C(NCCOc1ccc2c(c1)OCO2)C1CC(=O)N(C2CC2)C1 (centres undefined)", "Percent Effect": "106.6%"}
{"molecule": "O=C(NCCOc1ccc2c(c1)OCO2)C1CC(=O)N(CC2CC2)C1 (centres undefined)", "Percent Effect": "4.084%"}
{"molecule": "NC(=O)N1CCCN(C2CCCCc3ccccc32)CC1 (centres undefined)", "Percent Effect": "-4.011%"}
{"molecule": "COc1c(C)cnc(CNC(=O)c2cnc3onc(C)c3c2)c1C", "Percent Effect": "104.5%"}
{"molecule": "CC(C)CN1CC(C(=O)NCCOc2ccc3c(c2)OCO3)CC1=O (centres undefined)", "Percent Effect": "103.1%"}
{"molecule": "Cc1noc2ncc(C(=O)NCC3CCOC3)cc12 (centres undefined)", "Percent Effect": "-15.76%"}
{"molecule": "CC(C)CN1CC(C(=O)NCCc2c[nH]cn2)CC1=O (centres undefined)", "Percent Effect": "10.41%"}
{"molecule": "COC(=O)CCNC(=O)C1CC(=O)N(C2CCCC2)C1 (centres undefined)", "Percent Effect": "-11.01%"}

---

# Test system: Wolbachia pipientis
# procedure details: Anti-Wolbachia Cell-Based Screen
# Format: functional
# Set-up: scale not given: in the data most compounds retested in dose-response had high values
# measurement parameters: 5 µM
Among all 48,000 compounds or so, about 13,000 (27%) showed an effect of 50% or more. This is one part of the list.

{"compound": "O[C@@H]1Cc2ccccc2[C@@H]1Nc1ncccc1F", "system under test": "Wolbachia pipientis", "Percent Effect, %": -3.78}
{"compound": "CC(c1cccc(Cl)c1)N(C)CCS(=O)(=O)CCC(N)=O (centres undefined)", "system under test": "Wolbachia pipientis", "Percent Effect, %": 6.991}
{"compound": "COCC(=O)N1CCCN(c2ncnc3c2CCNCC3)CC1", "system under test": "Wolbachia pipientis", "Percent Effect, %": 1.266}
{"compound": "CCNc1ncc(C(=O)NC2COC3(CCCC3)C2)cn1 (centres undefined)", "system under test": "Wolbachia pipientis", "Percent Effect, %": -5.692}

Source listed as ChEMBL document CHEMBL3988442.
